Attribution: patent US12312347B2

Biological target: human c-Met (Homo sapiens, UniProt P08581)
Construct: purchased Invitrogen PV3143
Sequence (P08581 25-1390): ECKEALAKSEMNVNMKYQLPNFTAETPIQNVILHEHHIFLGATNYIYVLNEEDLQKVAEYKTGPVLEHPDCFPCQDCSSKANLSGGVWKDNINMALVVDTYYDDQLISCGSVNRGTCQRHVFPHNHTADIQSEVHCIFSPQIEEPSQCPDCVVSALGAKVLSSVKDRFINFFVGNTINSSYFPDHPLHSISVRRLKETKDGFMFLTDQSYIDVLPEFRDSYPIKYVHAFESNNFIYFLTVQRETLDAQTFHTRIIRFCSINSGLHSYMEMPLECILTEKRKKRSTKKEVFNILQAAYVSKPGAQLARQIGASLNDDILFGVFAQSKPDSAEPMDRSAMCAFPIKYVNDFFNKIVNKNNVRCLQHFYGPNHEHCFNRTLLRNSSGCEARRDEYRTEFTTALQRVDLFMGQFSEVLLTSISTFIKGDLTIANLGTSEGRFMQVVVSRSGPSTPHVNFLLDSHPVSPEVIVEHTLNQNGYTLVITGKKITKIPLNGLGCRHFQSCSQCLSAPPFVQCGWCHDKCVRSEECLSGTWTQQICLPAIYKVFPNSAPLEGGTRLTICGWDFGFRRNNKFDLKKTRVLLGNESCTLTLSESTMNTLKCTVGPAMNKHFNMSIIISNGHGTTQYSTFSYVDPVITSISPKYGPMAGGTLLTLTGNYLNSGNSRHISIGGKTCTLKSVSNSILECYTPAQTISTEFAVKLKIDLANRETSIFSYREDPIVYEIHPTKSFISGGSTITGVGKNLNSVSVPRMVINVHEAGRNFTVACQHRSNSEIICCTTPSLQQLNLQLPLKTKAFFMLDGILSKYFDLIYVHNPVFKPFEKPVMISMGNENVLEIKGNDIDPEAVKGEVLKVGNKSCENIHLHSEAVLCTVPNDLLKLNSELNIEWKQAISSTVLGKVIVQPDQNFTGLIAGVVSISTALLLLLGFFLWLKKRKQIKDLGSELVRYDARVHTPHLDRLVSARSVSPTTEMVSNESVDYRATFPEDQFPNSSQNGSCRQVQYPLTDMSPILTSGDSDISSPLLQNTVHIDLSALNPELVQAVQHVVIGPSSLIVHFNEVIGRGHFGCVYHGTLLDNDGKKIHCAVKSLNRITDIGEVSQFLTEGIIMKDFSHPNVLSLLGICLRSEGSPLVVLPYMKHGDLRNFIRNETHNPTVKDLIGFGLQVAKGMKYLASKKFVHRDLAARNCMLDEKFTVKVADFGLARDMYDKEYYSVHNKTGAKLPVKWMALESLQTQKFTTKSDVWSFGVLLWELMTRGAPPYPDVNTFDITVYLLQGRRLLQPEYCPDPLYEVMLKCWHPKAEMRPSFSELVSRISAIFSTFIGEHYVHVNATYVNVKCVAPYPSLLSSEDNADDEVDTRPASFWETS
Experiment: 33P isotope-labeled kinase activity test, c-Met
Type: biochemical
Conditions: ATP 10 μM
Procedure: The inhibitory activities of the tested compounds on human FGFR1, FGFR4, and c-Met were evaluated by the IC50 values measured using ^33P isotope-labeled kinase activity test (Reaction Biology Corp). Buffer condition: 20 mM Hepes (pH 7.5), 10 mM MgCl2, 1 mM EGTA, 0.02% Brij35, 0.02 mg/mL BSA, 0.1 mM Na3VO4, 2 mM DTT, 1% DMSO. Test procedure: The test compounds were dissolved in DMSO at room temperature and formulated to be 10 mM solutions for later use. […]
Where a name gives a salt, the structure may show the parent alone.
property.name: IC50 (nM)

Study these solved cases before continuing.
COc1cc(OC)c(F)c(Cc2c[nH]c3ncc(-c4cnc5c(c4)CNCC5)cc23)c1F [Trifluoroacetate salt of embodiment 52] ... 137
COc1cc(OC)c(F)c(Cc2c[nH]c3ncc(-c4cnn(CC5CNC5)c4)cc23)c1F [Trifluoroacetate salt of embodiment 29] ... 35.6
CCN1CC(n2cc(-c3cnc4[nH]cc(Cc5c(F)c(OC)cc(OC)c5F)c4c3)cn2)C1 [Trifluoroacetate salt of embodiment 25] ... 16.9
COc1cc(OC)c(F)c(Cc2c[nH]c3ncc(-c4cnn(CC(O)CO)c4)cc23)c1F (stereo not shown) [Hydrochloride of embodiment 73] ... 32.4
CCN1CCC(C#N)(c2cccc(-c3cnc4[nH]cc(Cc5c(F)c(OC)cc(OC)c5F)c4c3)c2)CC1 [Trifluoroacetate salt of embodiment 60] ... 320

A = COc1cc(OC)c(F)c(Cc2c[nH]c3ncc(-c4cn(C)nc4C#N)cc23)c1F [Trifluoroacetate salt of embodiment 44]
B = COc1cc(OC)c(F)c(Cc2c[nH]c3ncc(-c4cnn(C5CCN(C)CC5)c4)cc23)c1F [Trifluoroacetate salt of embodiment 13]
Incoming: Returns: the argument ( A or B ) having the larger IC50. Your answer should be the label of the entry you select.
Outgoing: A

====

Dear all, this message contains IC50 results, target or system human c-Met (Homo sapiens).
Counter-ions that a name gives are not always drawn.
property.name: IC50 (nM)

Study these solved cases before continuing.
CCN1CCC2(CC1)C(=O)Nc1cc(-c3cnc4[nH]cc(Cc5c(F)c(OC)cc(OC)c5F)c4c3)ccc12 [Trifluoroacetate salt of embodiment 55] ... 22.8
CCN1CCC(n2ccc(-c3cnc4[nH]cc(Cc5c(F)c(OC)nc(OC)c5F)c4c3)n2)CC1 [Embodiment 75] ... 3.26
COc1cc(OC)c(F)c(Cc2c[nH]c3ncc(-c4cnn(CCO)c4)nc23)c1F [Trifluoroacetate salt of embodiment 8] ... 496
COc1cc(OC)c(F)c(Cc2c[nH]c3ncc(-c4cnn(CC(O)CNC(C)C)c4)cc23)c1F (stereo not shown) [Hydrochloride of embodiment 71] ... 32.8
COc1cc(OC)c(F)c(Cc2c[nH]c3ncc(-c4cnn(CC(C)(C)O)c4)cc23)c1F [Trifluoroacetate salt of embodiment 66] ... 28
COc1ccc(Cl)c(Cc2c[nH]c3ncc(-c4cnn(C5CCNCC5)c4)nc23)c1Cl [Embodiment 7] ... 41.5
COc1cc(OC)c(F)c(Cc2c[nH]c3ncc(-c4cnn(C5CCN(C6COC6)CC5)c4)cc23)c1F [Trifluoroacetate salt of embodiment 15] ... 16
COc1ccc(Cl)c(Cc2c[nH]c3ncc(-c4cnn(C5CCNCC5)c4)cc23)c1Cl [Trifluoroacetate salt of embodiment 10] ... 8.7

a = COc1cc(OC)c(F)c(Cc2c[nH]c3ncc(-c4cncc(C5(C#N)CCNCC5)c4)cc23)c1F [Trifluoroacetate salt of embodiment 61]
b = CNC(=O)c1cc(Cc2c[nH]c3ncc(-c4cnn(C5CCNCC5)c4)cc23)c(Cl)c(OC)c1 [Trifluoroacetate salt of embodiment 20]
c = CCN1CCC(n2cc(-c3cnc4[nH]cc(Cc5c(F)c(OC)cc(OC)c5F)c4c3)c(C)n2)CC1 [Hydrochloride of embodiment 37]
d = COc1nc(OC)c(F)c(Cc2c[nH]c3ncc(-c4cnn(CCO)c4)cc23)c1F [Embodiment 48]
e = COc1cc(OC)c(F)c(Cc2c[nH]c3ncc(-c4cccc(C5(C#N)CCNCC5)c4)cc23)c1F [Trifluoroacetate salt of embodiment 59]
Incoming: Descending sort on IC50 required. List the labels according to the requested ordering.
Outgoing: a, e, c, b, d
(a: 243 nM, e: 127 nM, c: 33 nM, b: 12 nM, d: 6.3 nM)
